Reference source: ChEMBL document CHEMBL5724914

Assay context: human gut metagenome, 24 h, 2 µM; note: call rule not given here
Observation type: Bacterial Biotransformation

Record excerpt, results attached:
Input CCN(CC)CCNC(=O)c1cc(S(C)(=O)=O)ccc1OC [TIAPRIDE] . Output Bacterial Biotransformation: Compound NOT metabolized

Input CN(C)CCOC(C)(c1ccccc1)c1ccccn1.O=C(O)CCC(=O)O (centres undefined) [DOXYLAMINE SUCCINATE] . Output Bacterial Biotransformation: Compound NOT metabolized

Input C#C[C@]1(OC(C)=O)CC[C@H]2[C@@H]3CCC4=C[C@@H](OC(C)=O)CC[C@@H]4[C@H]3CC[C@@]21C [ETHYNODIOL DIACETATE] . Output Bacterial Biotransformation: Compound metabolized

Input CC(C)[C@H]1CC[C@H](C(=O)N[C@H](Cc2ccccc2)C(=O)O)CC1 [NATEGLINIDE] . Output Bacterial Biotransformation: Compound metabolized

***
Input O=C1CN2Cc3c(ccc(Cl)c3Cl)N=C2N1 [ANAGRELIDE] . Output Bacterial Biotransformation: Compound NOT metabolized

Input CN1CCN2c3ccccc3Cc3ccccc3C2C1 (centres undefined) . Output Bacterial Biotransformation: Compound metabolized

Input CCN1CCCC1CNC(=O)c1cc(S(=O)(=O)CC)c(N)cc1OC (centres undefined) [AMISULPRIDE] . Output Bacterial Biotransformation: Compound NOT metabolized

Input CCOC(=O)C1=C(C)NC(C)=C(C(=O)OC)C1c1cccc([N+](=O)[O-])c1 (centres undefined) . Output Bacterial Biotransformation: Compound metabolized

Input CC(=O)Oc1ccc(C(c2ccc(OC(C)=O)cc2)c2ccccn2)cc1 . Output Bacterial Biotransformation: Compound metabolized
